This collection of values is drawn from the kinase profiling compilation of Christmann-Franck et al. (2016).

# measured_target: TGFBR1 (human) (UniProt P36897)
# Sequence (P36897 whole entry, looked up): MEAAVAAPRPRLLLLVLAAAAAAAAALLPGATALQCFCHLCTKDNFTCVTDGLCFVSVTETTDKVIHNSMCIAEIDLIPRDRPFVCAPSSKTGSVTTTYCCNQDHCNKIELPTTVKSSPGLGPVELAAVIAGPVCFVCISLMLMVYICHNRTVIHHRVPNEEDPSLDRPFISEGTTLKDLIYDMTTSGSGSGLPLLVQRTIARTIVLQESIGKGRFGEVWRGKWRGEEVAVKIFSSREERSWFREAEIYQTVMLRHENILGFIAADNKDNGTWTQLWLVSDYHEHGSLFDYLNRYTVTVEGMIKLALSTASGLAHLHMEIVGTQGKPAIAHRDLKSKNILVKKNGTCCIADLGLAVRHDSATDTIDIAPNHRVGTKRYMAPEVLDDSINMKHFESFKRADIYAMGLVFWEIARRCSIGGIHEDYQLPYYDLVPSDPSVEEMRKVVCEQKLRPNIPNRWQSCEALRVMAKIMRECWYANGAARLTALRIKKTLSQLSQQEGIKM
# test_details: radiometric filter-binding kinase assay, Kinase HotSpot
# run_parameters: compound 0.5 µM; ATP 10 µM
Hi there, I'd appreciate the recorded residual activity for every entry that follows.
Answers are plain numbers, in %.

Example molecules with recorded residual activity:
- entry_smiles: "O=C1c2ccccc2-c2nc3nnnn3nc21"
  measurement: 107
- entry_smiles: "CC(C)(C)c1cc(C=C(C#N)C#N)cc(Br)c1O"
  measurement: 103
- entry_smiles: "Cc1cccc(-c2nc(C(C)(C)C)[nH]c2-c2ccc3c(c2)OCO3)n1"
  measurement: 35.8
- entry_smiles: "CO[C@@H]1[C@H](N(C)C(=O)c2ccccc2)C[C@H]2O[C@]1(C)n1c3ccccc3c3c4c(c5c6ccccc6n2c5c31)C(=O)NC4"
  measurement: 98.7
- entry_smiles: "COc1ccc2c(c1)c(C1=C(c3c[nH]c4ccccc34)C(=O)NC1=O)cn2CCCN(C)C"
  measurement: 101
- entry_smiles: "Cc1nc(-c2ccccc2)c(-c2ccncc2)o1"
  measurement: 102
- entry_smiles: "COc1cc2ncnc(Nc3ccc(Oc4ccccc4)cc3)c2cc1OC"
  measurement: 97.1
- entry_smiles: "c1ccc2c(-c3ccncc3)c[nH]c2c1"
  measurement: 103

Provide reported residual activity for each item, in the same order as listed.
1. COc1ccc2c(c1)/C(=C/c1cnc[nH]1)C(O)=N2
2. CS(=O)(=O)CCNCc1ccc(-c2ccc3ncnc(Nc4ccc(OCc5cccc(F)c5)c(Cl)c4)c3c2)o1
3. Fc1ccc(-c2nc3n(c2-c2ccncc2)CCS3)cc1
4. Cn1c2ccccc2c2c3c(c4c5ccccc5n(CCC#N)c4c21)CNC3=O

Reply |
1: 98.1; 2: 101; 3: 106; 4: 104

Look at each molecule and report its residual activity.
1. O=C1Nc2ccc(Br)cc2/C1=C\c1cc2c([nH]1)CCCC2
2. CCCCc1c(-c2ccc(OC)cc2)[nH]c2nccnc12
3. C[C@@H]1CCN(C(=O)CC#N)C[C@@H]1N(C)c1ncnc2[nH]ccc12
4. O=C1C(Cl)=C(N2C(=O)CCC2=O)C(=O)c2ccccc21
5. COc1ccc(C(=O)Nc2sc3c(c2C(N)=O)CCCC3)cc1OC
6. Ic1cccc(CSc2nnc(-c3ccncc3)o2)c1

Reply |
[100, 95, 98.8, 101, 95.8, 94.4]

----------
# System: PRKCQ (human), Q04759 [P330L]
# Sequence (Q04759 whole entry P330L, looked up): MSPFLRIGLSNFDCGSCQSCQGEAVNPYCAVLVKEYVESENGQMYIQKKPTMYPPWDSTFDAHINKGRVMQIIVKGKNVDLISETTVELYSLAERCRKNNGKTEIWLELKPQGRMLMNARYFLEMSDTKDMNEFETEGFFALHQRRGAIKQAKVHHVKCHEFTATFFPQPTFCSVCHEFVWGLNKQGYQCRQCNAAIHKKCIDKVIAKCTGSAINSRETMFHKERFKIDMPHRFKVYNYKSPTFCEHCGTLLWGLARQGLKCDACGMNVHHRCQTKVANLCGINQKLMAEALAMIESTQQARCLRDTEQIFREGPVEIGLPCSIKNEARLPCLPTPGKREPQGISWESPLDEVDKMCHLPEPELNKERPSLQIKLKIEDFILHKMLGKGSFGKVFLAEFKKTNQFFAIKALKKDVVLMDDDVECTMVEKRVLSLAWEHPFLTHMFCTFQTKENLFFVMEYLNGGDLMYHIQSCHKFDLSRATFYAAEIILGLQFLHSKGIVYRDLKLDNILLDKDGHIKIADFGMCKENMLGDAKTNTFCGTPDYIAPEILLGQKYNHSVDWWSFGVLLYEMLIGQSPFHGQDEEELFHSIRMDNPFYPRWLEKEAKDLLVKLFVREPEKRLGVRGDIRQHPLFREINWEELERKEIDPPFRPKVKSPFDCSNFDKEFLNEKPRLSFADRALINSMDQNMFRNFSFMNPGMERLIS
# test_details: radiometric filter-binding kinase assay, Kinase HotSpot
# run_parameters: compound 0.5 µM; ATP 10 µM
Exercise: state measured residual activity for each of the compounds provided.
Answers are plain numbers, in %.

# example entries with known answers
- entry_smiles: "CCCCc1c(-c2ccc(OC)cc2)[nH]c2nccnc12"
  measurement: 107
- entry_smiles: "CN(C)CCCn1cc(C2=C(c3c[nH]c4ccccc34)C(=O)NC2=O)c2ccccc21"
  measurement: 17.3
- entry_smiles: "Nc1ccc2ncnc(NCCc3ccc(Oc4ccccc4)cc3)c2c1"
  measurement: 108
- entry_smiles: "CN([C@@H](Cc1ccc(OS(=O)(=O)c2cccc3cnccc23)cc1)C(=O)N1CCN(c2ccccc2)CC1)S(=O)(=O)c1cccc2cnccc12"
  measurement: 108

Please report residual activity for every entry that follows.
1. CC(C)(C)c1nc2c3ccc(F)cc3c3c(=O)[nH]ccc3c2[nH]1
2. Ic1cccc(CSc2nnc(-c3ccncc3)o2)c1
3. Cc1nc(-c2ccccc2)c(-c2ccncc2)o1
4. O=C1NC(=O)C(c2c[nH]c3ccccc23)=C1c1c[nH]c2ccccc12

Reply |
1: 66.8; 2: 120; 3: 120; 4: 33.8

----------
# measured_target: PRKCG (human)
# test_details: radiometric filter-binding kinase assay, Kinase HotSpot
# run_parameters: compound 0.5 µM; ATP 10 µM
Would you kindly list residual activity for each of these molecules?
# include the unit after the value

# example entries with known answers
- entry_smiles: "CS(=O)(=O)CCNCc1ccc(-c2ccc3ncnc(Nc4ccc(OCc5cccc(F)c5)c(Cl)c4)c3c2)o1"
  residual activity: "79.3%"
- entry_smiles: "COc1ccc2c(c1)c(C1=C(c3c[nH]c4ccccc34)C(=O)NC1=O)cn2CCCN(C)C"
  residual activity: "54%"
- entry_smiles: "Cc1cccc(-c2nc(C(C)(C)C)[nH]c2-c2ccc3c(c2)OCO3)n1"
  residual activity: "107%"

Give one value of residual activity per listed molecule.
1. CN(C)c1ccc(/C=C2\C(=O)Nc3ccccc32)cc1
2. CC(C)(C)c1cc(C=C(C#N)C#N)cc(Br)c1O
3. CCCCc1c(-c2ccc(OC)cc2)[nH]c2nccnc12
4. Ic1cccc(CSc2nnc(-c3ccncc3)o2)c1

Reply |
1: 96.8%; 2: 90.4%; 3: 94.4%; 4: 98.7%

For every listed record, write down its residual activity.
1. C[C@@H]1CCN(C(=O)CC#N)C[C@@H]1N(C)c1ncnc2[nH]ccc12
2. COc1ccc2c(c1)/C(=C/c1cnc[nH]1)C(O)=N2
3. COc1ccc(Cl)cc1NC(=O)Nc1cc(C)nc2ccccc12
4. O=C1NC(=O)c2c1c1c3ccccc3[nH]c1n1cncc21
5. O=C(c1cc2cc(O)ccc2[nH]1)c1cc2cc(O)ccc2[nH]1
6. COc1cc2ncnc(Nc3ccc(OCc4ccccc4)cc3)c2cc1OC

Reply |
["90.6%", "95.2%", "107%", "117%", "85.1%", "98.5%"]

Parameter requested: residual activity. Apply to each item below.
1. N#Cc1c[nH]c2c[nH]/c(=N\Cc3cccnc3)cc2/c1=N\c1ccc(F)c(Cl)c1
2. O=C1Nc2ccc(Br)cc2/C1=C\c1cc2c([nH]1)CCCC2

Reply |
1: 111%; 2: 100%

Report residual activity for every entry below.
1. O=C1C(Cl)=C(N2C(=O)CCC2=O)C(=O)c2ccccc21
2. COc1cc2ncnc(Nc3ccc(Oc4ccccc4)cc3)c2cc1OC
3. COc1cc(Nc2c(C#N)cnc3cc(OCCCN4CCN(C)CC4)c(OC)cc23)c(Cl)cc1Cl
4. c1ccc2c(-c3ccncc3)c[nH]c2c1

Reply |
1: 97.5%; 2: 84.6%; 3: 93.6%; 4: 99.4%

----------
# measured_target: UniProtKB P29322
# Sequence (P29322 whole entry, looked up): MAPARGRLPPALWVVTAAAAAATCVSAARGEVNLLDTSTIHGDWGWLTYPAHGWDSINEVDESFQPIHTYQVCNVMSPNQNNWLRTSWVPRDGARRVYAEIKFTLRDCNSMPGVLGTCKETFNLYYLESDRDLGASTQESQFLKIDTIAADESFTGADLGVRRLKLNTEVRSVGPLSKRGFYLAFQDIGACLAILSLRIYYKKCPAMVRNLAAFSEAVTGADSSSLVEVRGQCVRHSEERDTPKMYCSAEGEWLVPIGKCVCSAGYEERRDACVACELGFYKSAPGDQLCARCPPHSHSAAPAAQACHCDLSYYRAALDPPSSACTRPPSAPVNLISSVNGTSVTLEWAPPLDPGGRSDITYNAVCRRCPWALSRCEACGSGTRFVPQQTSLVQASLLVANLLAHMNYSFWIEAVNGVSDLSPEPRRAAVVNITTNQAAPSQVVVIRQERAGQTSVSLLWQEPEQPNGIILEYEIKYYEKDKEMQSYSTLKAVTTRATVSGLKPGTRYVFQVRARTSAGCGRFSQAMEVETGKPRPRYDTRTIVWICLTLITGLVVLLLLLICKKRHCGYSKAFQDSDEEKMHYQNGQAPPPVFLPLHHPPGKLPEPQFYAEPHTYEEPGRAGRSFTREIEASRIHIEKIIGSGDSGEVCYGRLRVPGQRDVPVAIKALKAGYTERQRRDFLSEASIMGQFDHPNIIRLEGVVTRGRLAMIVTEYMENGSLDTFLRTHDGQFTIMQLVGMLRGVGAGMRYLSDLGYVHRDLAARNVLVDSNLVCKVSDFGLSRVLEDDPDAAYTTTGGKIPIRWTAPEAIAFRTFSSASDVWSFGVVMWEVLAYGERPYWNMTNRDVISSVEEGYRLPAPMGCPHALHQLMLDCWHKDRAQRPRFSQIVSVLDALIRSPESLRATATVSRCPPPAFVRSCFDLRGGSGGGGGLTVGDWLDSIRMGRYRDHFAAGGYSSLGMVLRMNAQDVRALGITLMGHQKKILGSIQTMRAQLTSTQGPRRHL
# test_details: radiometric filter-binding kinase assay, Kinase HotSpot
# run_parameters: compound 0.5 µM; ATP 10 µM
readout_type: residual activity
Please answer using the number first and the unit second.

- entry_smiles: "COc1ccc(C(=O)Nc2sc3c(c2C(N)=O)CCCC3)cc1OC"
  residual activity: "114%"
- entry_smiles: "COc1ccc(Cl)cc1NC(=O)Nc1cc(C)nc2ccccc12"
  residual activity: "97.8%"
- entry_smiles: "COc1ccc(S(=O)(=O)N(CCO)c2ccccc2CN(C)C/C=C/c2ccc(Cl)cc2)cc1"
  residual activity: "100%"
- entry_smiles: "O=C1Nc2ccc(Br)cc2/C1=C\\c1cc2c([nH]1)CCCC2"
  residual activity: "94.5%"
- entry_smiles: "CC(C)(C)c1cc(C=C(C#N)C#N)cc(Br)c1O"
  residual activity: "100%"

Report residual activity for every entry below.
1. CCCCc1c(-c2ccc(OC)cc2)[nH]c2nccnc12
2. Ic1cccc(CSc2nnc(-c3ccncc3)o2)c1
3. CN(C)CCCn1cc(C2=C(c3c[nH]c4ccccc34)C(=O)NC2=O)c2ccccc21
4. COc1ccc2c(c1)/C(=C/c1cnc[nH]1)C(O)=N2
5. c1ccc2c(-c3ccncc3)c[nH]c2c1

Reply |
1. 103%
2. 91.5%
3. 103%
4. 103%
5. 101%

Ask | Quick one: residual activity of "Cc1cccc(-c2nc(C(C)(C)C)[nH]c2-c2ccc3c(c2)OCO3)n1" ?
Reply | 89.9%

----------
# measured_target: SRPK2 (human)
# test_details: radiometric filter-binding kinase assay, Kinase HotSpot
# run_parameters: compound 0.5 µM; ATP 10 µM
readout_type: residual activity (%)
One number for each entry, in %.

- entry_smiles: "COc1cc(Nc2c(C#N)cnc3cc(OCCCN4CCN(C)CC4)c(OC)cc23)c(Cl)cc1Cl"
  measurement: 101

Could you report residual activity for every entry in the following list?
1. CCCCc1c(-c2ccc(OC)cc2)[nH]c2nccnc12
2. C[C@@H]1CCN(C(=O)CC#N)C[C@@H]1N(C)c1ncnc2[nH]ccc12
3. NC(=O)c1cccc(-c2cc(Nc3ccc(OC(F)(F)F)cc3)ncn2)c1

Reply |
1. 105
2. 90.7
3. 105

----------
Please provide measured residual activity for the entries that follow.
# measured_target: STK33 (human)
# test_details: radiometric filter-binding kinase assay, Kinase HotSpot
# run_parameters: compound 0.5 µM; ATP 10 µM
Numbers only, in %.

Some compounds with recorded residual activity:
- entry_smiles: "NC(=O)c1cccc(-c2cc(Nc3ccc(OC(F)(F)F)cc3)ncn2)c1"
  residual activity [%]: 92.1
- entry_smiles: "CN(C)CCCn1cc(C2=C(c3c[nH]c4ccccc34)C(=O)NC2=O)c2ccccc21"
  residual activity [%]: 62.9
- entry_smiles: "Cc1nc(-c2ccccc2)c(-c2ccncc2)o1"
  residual activity [%]: 99.3
- entry_smiles: "N#Cc1c[nH]c2c[nH]/c(=N\\Cc3cccnc3)cc2/c1=N\\c1ccc(F)c(Cl)c1"
  residual activity [%]: 87.4

Next up:
Ask | residual activity for "O=C1C(Cl)=C(N2C(=O)CCC2=O)C(=O)c2ccccc21" ?
Reply | 91.5
